Below are compounds with their IC50 as measured on Protease (Human immunodeficiency virus 1, UniProt Q9YQ12).
Sequence (Q9YQ12 whole entry): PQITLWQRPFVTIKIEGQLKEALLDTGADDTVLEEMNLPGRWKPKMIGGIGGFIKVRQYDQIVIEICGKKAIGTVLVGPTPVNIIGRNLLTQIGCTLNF
reported property: IC50 (µM)

>>> reported("Cc1cn([C@H]2C[C@H](n3cc(CNCc4cc5cc(Br)ccc5oc4=O)nn3)[C@@H](CO)O2)c(=O)[nH]c1=O")
28.9
>>> reported("COc1cccc2cc(CN(Cc3ccccc3)C(=O)CNCc3cn([C@H]4C[C@H](n5cc(C)c(=O)[nH]c5=O)O[C@@H]4CO)nn3)c(=O)oc12")
22.7
>>> reported("CCOc1cccc2cc(CN(Cc3ccccc3)C(=O)CNCc3cn([C@H]4C[C@H](n5cc(C)c(=O)[nH]c5=O)O[C@@H]4CO)nn3)c(=O)oc12")
27.3
>>> reported("Cc1cn([C@H]2C[C@H](n3cc(CNCc4cc5ccccc5oc4=O)nn3)[C@@H](CO)O2)c(=O)[nH]c1=O")
27.1
>>> reported("Cc1cn([C@H]2C[C@H](n3cc(CNCc4cc5cc(Cl)ccc5oc4=O)nn3)[C@@H](CO)O2)c(=O)[nH]c1=O")
24.8

----------
- study system: UniProtKB Q72547
- run description: Inhibition of HIV1 reverse transcriptase at 50 uM relative to control
reported property: inhibition (%)

>>> reported("Cc1cn([C@H]2C[C@H](n3cc(CNCc4cc5cc(Cl)ccc5oc4=O)nn3)[C@@H](CO)O2)c(=O)[nH]c1=O")
24

[1] Cc1cn([C@H]2C[C@H](n3cc(CNCC(=O)N(Cc4ccccc4)Cc4cc5cc(Cl)ccc5oc4=O)nn3)[C@@H](CO)O2)c(=O)[nH]c1=O
[2] CCOc1cccc2cc(CNCc3cn([C@H]4C[C@H](n5cc(C)c(=O)[nH]c5=O)O[C@@H]4CO)nn3)c(=O)oc12
Input: Look at 1 and 2 . Which one has the lower recorded inhibition number? Please identify the chosen entry by its label.
Output: 2

----------
- study system: Human immunodeficiency virus type 1 reverse transcriptase (Human immunodeficiency virus 1) (UniProt Q72547)
- run description: Inhibition of HIV1 reverse transcriptase at 50 uM relative to control
reported property: inhibition (%)

Solved entries (count: 2):
>>> reported("Cc1cn([C@H]2C[C@H](n3cc(CNCC(=O)N(Cc4ccccc4)Cc4cc5ccccc5oc4=O)nn3)[C@@H](CO)O2)c(=O)[nH]c1=O")
96
>>> reported("CCOc1cccc2cc(CN(Cc3ccccc3)C(=O)CNCc3cn([C@H]4C[C@H](n5cc(C)c(=O)[nH]c5=O)O[C@@H]4CO)nn3)c(=O)oc12")
97

[1] Cc1cn([C@H]2C[C@H](n3cc(CNCc4cc5cc(Br)ccc5oc4=O)nn3)[C@@H](CO)O2)c(=O)[nH]c1=O
[2] COc1cccc2cc(CNCc3cn([C@H]4C[C@H](n5cc(C)c(=O)[nH]c5=O)O[C@@H]4CO)nn3)c(=O)oc12
Input: Look at 1 and 2 . Which one has the lower recorded inhibition number? Please identify the chosen entry by its label.
Output: 2
(2: 29%, 1: 94%)

----------
- study system: Human immunodeficiency virus type 1 reverse transcriptase (Human immunodeficiency virus 1) (UniProt Q72547)
- run description: Inhibition of HIV1 reverse transcriptase at 50 uM relative to control
reported property: inhibition (%)

>>> reported("Cc1cn([C@H]2C[C@H](n3cc(CNCC(=O)N(Cc4ccccc4)Cc4cc5cc(Br)ccc5oc4=O)nn3)[C@@H](CO)O2)c(=O)[nH]c1=O")
94
>>> reported("Cc1cn([C@H]2C[C@H](n3cc(CNCc4cc5ccccc5oc4=O)nn3)[C@@H](CO)O2)c(=O)[nH]c1=O")
92
>>> reported("COc1cccc2cc(CN(Cc3ccccc3)C(=O)CNCc3cn([C@H]4C[C@H](n5cc(C)c(=O)[nH]c5=O)O[C@@H]4CO)nn3)c(=O)oc12")
97

Every entry's value here was drawn from ChEMBL document CHEMBL2346501.
